# composite z-score per record follows
experiment: small-molecule microarray binders of probe aLefty2, primary screen, biochemical, biotinylated probe, 635/667 nm fluorescence (AID 1094); details: higher = more signal;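 note: score merges spot fluorescence near 667 nm with spot signal-to-noise ratio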
assay endpoint: composite z-score

• COc1ccc([Si](C)(C)[C@H]2[C@H](CCO)O[C@@]3(C(=O)N(C)c4c(Br)cc(C)cc43)[C@@H]2C)cc1 = -0.1
• C=CCNC(=O)[C@H]1[C@@H]2C(=O)O[C@@H](c3ccccc3)[C@@H](c3ccccc3)N2[C@@H](c2ccccc2OCCO)[C@]12C(=O)Nc1ccc(C#CC3=CCCCC3)cc12 = -0.117
• Cc1ccc(S[C@]2(C(=O)NCCN3CCOCC3)CC(=O)N(Cc3ccccc3Cl)[C@@H]2c2ccc(CO)cc2)cc1 = -0.057
• COc1ccc([Si](C)(C)[C@H]2[C@H](CCO)O[C@@]3(C(=O)N(Cc4ccc(N5C(=O)COc6ccccc65)cc4)c4ccccc43)[C@@H]2C)cc1 = -0.0796
• CN(C)C(=O)[C@@]1(Cc2ccccc2CN=[N+]=[N-])N=C(c2ccc(OCCCO)cc2)O[C@H]1c1ccccc1 = 0.0561
• COCCOC(=O)N1C(=O)[C@@]2(c3ccccc31)[C@H](c1ccccc1OCCO)N1[C@H](c3ccccc3)[C@H](c3ccccc3)OC(=O)[C@H]1[C@@H]2C(=O)Nc1nc2ccccc2s1 = -0.0285
• CC(C)C[C@H]1NC(=O)[C@@]23C(=O)N[C@@H](Cc4ccccc4)C2[C@H](C)[C@@]2(C)O[C@H]2C3/C=C/C/C=C\CNC(=O)[C@H](Cc2ccccc2)NC1=O (stereo partly drawn) = -0.157
• COc1ccc(C(=O)Nc2ccc(CN3C(=O)[C@@]4(O[C@@H](CCn5cc([C@H](O)c6ccccc6)nn5)[C@H]([Si](C)(C)c5ccc(OC)cc5)[C@H]4C)c4ccccc43)cc2)cc1 = -0.136
• COC(=O)[C@@]1(Cc2ccccc2)[C@H]2c3cc(C(=O)N4CCCC4)n(Cc4nc5ccccc5[nH]4)c3C[C@H]2CN1C(=O)c1ccccc1 = 0.746
• CC(C)N1C(=O)c2ccccc2[C@](C)(C(=O)NCc2ccccc2)[C@@H]1c1ccc(CO)cc1 = 0.0322
• C=CCNC(=O)[C@@H]1[C@H]2C(=O)O[C@H](c3ccccc3)[C@H](c3ccccc3)N2[C@H](c2ccccc2OCCO)[C@@]12C(=O)N(C(=O)OCCOC)c1ccc(C#CCNC(N)=O)cc12 = 0.0395
• COc1ccc(CCNC(=O)[C@@]2(C)c3ccccc3C(=O)N(Cc3cc(F)cc(C(F)(F)F)c3)[C@H]2c2ccc(CO)cc2)cc1 = -0.0112
• COC(=O)[C@@]1(Cc2ccc(F)cc2)[C@H]2c3cc(C(=O)N(C)C)n(CC4CC4)c3C[C@H]2CN1C(=O)c1ccccc1 = 1.41

----------
target: Concanavalin-A (Canavalia ensiformis); assay: ConA small-molecule binders, primary screen, artefact control for SMM control protein annotation, biochemical, small-molecule microarray, Alexa647 label, 635 nm (AID 1127); conditions: ConA-A647 binding fluorescence, higher = more signal;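 note: z combines 667 nm emission intensity with signal-to-noise across three replicate slides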
Threshold check on composite z-score: at or above 0.8 gives criterion met, strictly below gives criterion not met.

- COCCOC(=O)N1C(=O)[C@@]2(c3cc(C#CCCO)ccc31)[C@H](C(=O)Nc1nc3ccccc3s1)[C@H]1C(=O)O[C@H](c3ccccc3)[C@H](c3ccccc3)N1[C@@H]2c1ccc(OCCO)cc1: criterion met
- CN(C)C(=O)[C@]1(Cc2ccccc2CN=[N+]=[N-])N=C(c2ccc(OCCCO)cc2)O[C@@H]1c1ccccc1CN=[N+]=[N-]: criterion not met
- Cc1ccc(S[C@]2(C(=O)NCC(F)(F)F)CC(=O)N(C(C)C)[C@@H]2c2ccc(CO)cc2I)cc1: criterion not met
- O=C1NCC(=O)N2[C@@H]1C[C@@H](C(=O)O)[C@H]2c1cccc(OCCO)c1: criterion met
- CCOC(=O)C[C@H]1[C@H](OC(=O)Cc2ccc3c(c2)OCO3)[C@@H](NC(=O)c2ccc(-c3ccccc3)cc2)c2cc(OCCCO)ccc2N1C(=O)c1ccc2ccccc2n1: criterion not met
- COc1ccc([Si](C)(C)[C@@H]2[C@@H](CC(=O)N3Cc4ccccc4C[C@H]3CO)O[C@]3(C(=O)N(C)c4c(Br)cc(C)cc43)[C@H]2C)cc1: criterion met

From: PubChem BioAssay
